Reported IC50 is given for each of the following molecules.
# test system: WT v-Src (Rous sarcoma virus subgroup A, UniProt P00524, DEL77-225)
# Construct: mutant of the v-Src catalytic domain, (the XD4 fragment) were made as glutathione S-transferase (GST) fusion proteins; made in house; host or cells: E. coli (DH5a), pGEX-KT
# test details: biochemical
# Type: biochemical
Write the answer as a number in µM, unit excluded.

These solved cases illustrate the format of a correct answer.
| smiles record | unit descriptor | IC50 |
| --- | --- | --- |
| CC(C)(C)n1nc(-c2cccc(OCc3ccccc3)c2)c2c(N)ncnc21 | µM | 26 |
| CC(C)(C)n1nc(-c2cccc(Oc3ccccc3)c2)c2c(N)ncnc21 | µM | 40 |

// switching to the query molecule
Look at this molecule and give its reported IC50. CC(C)(C)c1ccc(-c2nn(C(C)(C)C)c3ncnc(N)c23)cc1 65
